- assayName: qHTS assay to identify small molecule agonists of the estrogen receptor alpha (ER-alpha) signaling pathway in the presence of an antagonist - cell viability counter screen (AID 1259386);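 note: cells exposed to compounds for 22 h at 37 °C before the viability read; nearly all actives have a fitted effect of over 30% in size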
- measurementContext: VM7Luc4E2 viability, CellTiter-Fluor fluorescence, 22 h; series mostly up to 92.4 µM
Inconclusive results are not listed. Activity calls are given as the source filed them. Calls come from the whole dose curve; as a rule, active = well fitted cell-killing curve with a large enough effect in the repeat runs; inconclusive = weak or mixed curves, or effect the other way; inactive = no such curve, though single readings can be large or run the other way.
Write down one outcome, taken from true for active, false for inactive

Given C/C=C/C=C/COC(=O)C(C)C , state the outcome it received in this test.
false

Which outcome was assigned to CCOC(=O)c1ccc(C2CCC(NC[C@H](O)COc3ccc(O)c(NS(C)(=O)=O)c3)CC2)cc1 (stereo partly drawn) in this test?
false

Write down the call the test reported for this molecule. Item: Cc1cc(C)c(/C=C2\C(=O)Nc3ccccc32)[nH]1
true

Returns: the outcome recorded for CC(C)NC[C@@H](O)COc1ccc(CC(N)=O)cc1 in this assay.
false

Recorded test outcome, item Oc1ccccc1O
false

Name the outcome recorded for O=c1[nH]c(=O)n([C@H]2C[C@H](O)[C@@H](CO)O2)cc1F in the assay.
false

For CC1(C)CC(O)CC(C)(C)N1 , which call appears in the assay record?
false

Assay result, entry CCCCCCOC(=O)C(C)CC (stereo not drawn) — outcome?
false

Just curious, what result did Cc1cccc(C(=O)O)c1O get here?
false

Please let me know the test result on file for CCO[C@@H]1O[C@H](C(COCc2ccccc2)OCc2ccccc2)[C@H](OCc2ccccc2)[C@H]1O (stereo partly drawn) .
false

Look up the recorded call for C=CC(C)(CCC=C(C)C)OC=O (stereo not drawn) in this test.
false

Outcome? CCCCCCCCCCCCCC[N+](C)(C)C
false

Hey, what did the test say about OC1CCC(C2CCCCC2)CC1 (stereo not drawn) ?
false

###

- assayName: qHTS assay to identify aromatase inhibitors - cell viability counter screen (AID 743084);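 note: cells stimulated with testosterone during compound exposure; nearly all actives have a fitted effect of over 55% in size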
- measurementContext: MCF-7 aro ERE viability, CellTiter-Fluor, 24 h; series mostly up to 70.3 µM
Inconclusive results are not listed. Active and inactive are the calls of the source. The call rests on the fitted dose curve; in most records, active means well fitted cell-killing curve with a large enough effect in the repeat runs; inconclusive means weak or mixed curves, or effect the other way; inactive means no such curve, though single readings can be large or run the other way.
Outcome field: choose from 1 (yes) = active, 0 (no) = inactive

Field: outcome | Entry: CCC(COC(=O)CCS)(COC(=O)CCS)COC(=O)CCS
0 (no)

Tell me the assay call for CC(C)(C)NSc1nc2ccccc2s1 please.
0 (no)

So what was the verdict on COc1ccc2cc1Oc1ccc(cc1)C[C@H]1c3c(cc4c(c3Oc3cc5c(cc3OC)CCN(C)[C@@H]5C2)OCO4)CCN1C in this test?
0 (no)

So what was the verdict on CCOC(=O)Cn1cccc1-c1nc(-c2ccc(OC)cc2)c(-c2ccc(OC)cc2)s1 in this test?
0 (no)

Any idea what this test logged for Cc1cc(C(C#N)c2ccc(Cl)cc2)c(Cl)cc1NC(=O)c1cc(I)cc(I)c1O (stereo not given) ?
0 (no)

Which outcome was entered for the molecule C=C(C)c1cccc(C(=C)C)c1 in this test?
0 (no)

Which outcome was assigned to O=C(O)[C@H](O)[C@@H](O)[C@H](O[C@@H]1O[C@H](CO)[C@H](O)[C@H](O)[C@H]1O)[C@H](O)CO in this test?
0 (no)

Just curious, what result did OC1CCC(C2CCCCC2)CC1 (stereo not given) get here?
0 (no)

Given COc1cc(S(=O)(=O)O)c(C)cc1N=Nc1c(O)ccc2cc(S(=O)(=O)O)ccc12 , state the outcome it received in this test.
1 (yes)

# outcome recorded in this test, key = OC[C@H]1O[C@H](O[C@H]2O[C@H](CO)[C@@H](O)[C@H](O)[C@H]2O)[C@H](O)[C@@H](O)[C@@H]1O
0 (no)

Recorded call for CN1CCN2c3ccccc3Cc3ccccc3C2C1 (stereo not given) ?
0 (no)

What classification did Cc1cccc2cccnc12 end up with in this test?
0 (no)

What call does the record list for CNc1ccc([N+](=O)[O-])cc1 ?
1 (yes)

Which result was noted for this molecule in the test: O=C1OC2(c3ccc(O)cc3Oc3cc(O)ccc32)c2ccc(N=C=S)cc21
0 (no)

Please state the recorded outcome for this molecule: CC(=O)c1ccc(C(C)=O)cc1
0 (no)

What outcome does the record of this test show for CN(C)Cc1ccccc1O ?
0 (no)

Short answer needed: outcome of this test for c1ccc(SSc2ccccc2)cc1 ?
0 (no)

What call does the record list for O[C@@H]([C@H](O)[C@H](O)CBr)[C@H](O)CBr ?
0 (no)

Would you mind telling me which call this test gave CCc1ccc(Br)cc1 ?
0 (no)

Per the records of this test, what outcome belongs to C#C[C@]1(O)CC[C@H]2[C@@H]3[C@H](C)CC4=C(CCC(=O)C4)[C@H]3CC[C@@]21C ?
0 (no)

Please share the test call associated with OC12N=C(c3ccccc3)SC1Cc1cc(Cl)ccc12 (stereo not given) .
0 (no)

Record request — test call for CC1(C)CCC[C@]2(C)[C@H]3CCO[C@]3(C)CC[C@@H]12
0 (no)

Assay outcome for O=C(O)c1cc(O)c2ccccc2c1O : what was it?
1 (yes)

Status in this test for O=[N+]([O-])c1ccc(F)c(Cl)c1 ?
0 (no)

Outcome? CCCCCCOC(=O)C(C)CC (stereo not given)
0 (no)

###

- assayedSystem: Thyrotropin receptor (Homo sapiens) (UniProt P16473)
- Sequence (P16473 whole entry, looked up): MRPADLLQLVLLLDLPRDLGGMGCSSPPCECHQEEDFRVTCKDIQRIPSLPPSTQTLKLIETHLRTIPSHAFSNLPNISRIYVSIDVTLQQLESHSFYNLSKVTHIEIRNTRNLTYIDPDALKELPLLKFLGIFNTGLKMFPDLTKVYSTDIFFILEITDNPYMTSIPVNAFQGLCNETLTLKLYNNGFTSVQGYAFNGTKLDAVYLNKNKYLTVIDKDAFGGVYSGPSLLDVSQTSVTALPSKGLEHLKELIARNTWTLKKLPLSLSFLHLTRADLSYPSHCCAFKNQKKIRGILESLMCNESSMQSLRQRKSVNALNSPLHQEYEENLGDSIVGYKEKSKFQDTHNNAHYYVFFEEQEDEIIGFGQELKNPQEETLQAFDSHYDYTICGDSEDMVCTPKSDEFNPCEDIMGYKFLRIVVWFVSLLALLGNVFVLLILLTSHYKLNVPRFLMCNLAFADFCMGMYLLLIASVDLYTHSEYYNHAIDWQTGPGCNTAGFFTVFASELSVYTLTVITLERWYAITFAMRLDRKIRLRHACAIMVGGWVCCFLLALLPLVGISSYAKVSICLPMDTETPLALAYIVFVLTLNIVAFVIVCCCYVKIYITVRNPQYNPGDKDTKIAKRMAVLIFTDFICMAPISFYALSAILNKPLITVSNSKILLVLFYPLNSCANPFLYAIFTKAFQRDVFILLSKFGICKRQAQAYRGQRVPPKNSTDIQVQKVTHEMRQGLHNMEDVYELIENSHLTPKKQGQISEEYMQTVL
- assayName: qHTS assay to identify small molecule antagonists of the thyroid stimulating hormone receptor (TSHR) signaling pathway (AID 1259385); note: nearly all actives have a fitted effect of over 20% in size
- measurementContext: TSHR-HEK293 cAMP HTRF, TSH-stimulated antagonist mode; series mostly up to 92.4 µM
- Protocol: U.S. Tox21 Program National Center for Advancing Translational Sciences [NCATS] NIH Chemical Genomics Center [NCGC] U.S. Environmental Protection Agency [EPA] National Institutes of Environmental Health Sciences [NIEHS] National Toxicology Program [NTP] […] Tox21 Assay Protocol Summary: TSHR-Hek293 cells were dispensed at 800 cells/4uL/well in 1536-well white plates using a Multidrop dispenser. […] The fluorescence intensity in the plates was measured using an Envision plate reader. […]
Inconclusive results are not listed. Activity calls are given as the source filed them. Calls follow the shape of the full dose curve.
property: activity change, negative = inhibition

molecule | activity change, negative = inhibition
CN(C)Cc1ccccc1O | inactive
CC[N+](CC)(CC)CCOc1ccc(/C=C/c2ccccc2)cc1 | inactive
Cc1ccc(C(C)C)cc2c(C)ccc1-2 | inactive
C[Si](Cl)(c1ccccc1)c1ccccc1 | inactive
Fc1ccc(C(c2ccc(F)cc2)N2CCNCC2)cc1 | inactive

Given the molecule Nc1nc2c(ncn2COCCO)c(=O)[nH]1 , what is its reported activity change, negative = inhibition?
inactive

###

- assayedSystem: Cytochrome P450 2C19 (Homo sapiens)
- assayName: Cytochrome P450 Family 2 Subfamily C Member 19 (CYP2C19) small molecule antagonists: luciferase reporter qHTS assay (AID 1671197); note: nearly all actives have a fitted effect of over 65% in size
- measurementContext: P450-Glo CYP2C19 enzyme, luciferin luminescence, 1 h; series mostly up to 115 µM
Records with an inconclusive call do not appear. Activity calls are given as the source filed them. Calls follow the shape of the dose curve; as a rule, active = well fitted inhibition curve with a large enough effect in the repeat runs; inconclusive = weak or mixed curves; inactive = no such curve, though single readings can be large or run the other way.
Just give me one of these, please: class 1 for active, class 0 for inactive

I would be grateful if you could indicate the recorded call for CCCCCCCCCCCCOC(=O)c1ccc(O)cc1 .
class 1

Lab log entry: CC(C)=CCC1=C(O)c2ccccc2C(=O)C1=O — outcome as called in the assay?
class 1

Please let me know the test result on file for Cc1cccc(C(=O)O)c1O .
class 0

Answer briefly: the call reported for CCCCCc1ccc(Cl)cc1 in this assay.
class 0

Please state the recorded outcome for this compound: COC(=O)c1ccccc1C
class 0

Recorded test call requested for Nc1nc(N)nc(-c2cc(Cl)ccc2Cl)n1
class 0

# fetch the recorded call for CCCCCCCCCCCCCCCC[N+](C)(C)CC here
class 0

How did this test come out for O=C(O)c1ccc2cc(C(=O)O)ccc2c1 ?
class 1

Fill in: this test's call for CC1(C)CCC[C@]2(C)[C@H]3CCO[C@]3(C)CC[C@@H]12 is ___
class 0

Any idea what this test logged for O=C(O)c1cc(O)c2ccccc2c1O ?
class 1

Entry CCCNCCC : call = ?
class 0

Check the results log: what was the call for O=C(/C=C/c1ccc(O)c(O)c1)O[C@@H](C(=O)O)[C@@H](OC(=O)/C=C/c1ccc(O)c(O)c1)C(=O)O ?
class 0

Fill in: this test's call for CC(=O)OCC=C(C)C is ___
class 0

What did this assay record as the result for Cc1cc(C)c(/C=C2\C(=O)Nc3ccccc32)[nH]1 ?
class 1

How was Cc1cc(-c2ccc(N=Nc3cc(S(=O)(=O)O)c4ccccc4c3N)c(C)c2)ccc1N=Nc1cc(S(=O)(=O)O)c2ccccc2c1N classified in this test?
class 0

I would be grateful if you could indicate the recorded call for CCCCCCCC .
class 0

GET /call?item= FC(F)(F)c1cccc(Cl)c1 returns the recorded outcome of this test.
class 1

Look up the recorded call for COc1cccc(OC)c1C(=O)O in this test.
class 0

Hi, do you know how O=C1CCc2cc(OCCCCc3nnnn3C3CCCCC3)ccc2N1 came out in this test?
class 0

Look up the recorded call for CCC(CC)C(C)CCOC(C)=O (configuration not stated) in this test.
class 0

Kindly provide the recorded test outcome for the following compound: CCc1ccc(Br)cc1
class 0

// return assay outcome for O=C1C(c2[nH]c3ccc(S(=O)(=O)O)cc3c2O)=Nc2ccc(S(=O)(=O)O)cc21
class 1

Identify the outcome logged in this assay for the compound shown: NC(=S)NC(N)=S
class 1

Query: recorded result category for O=S(=O)(O)c1ccccc1/C=C/c1ccc(-c2ccc(/C=C/c3ccccc3S(=O)(=O)O)cc2)cc1 in this test
class 0

Given CC1=Nc2ccccc2C1(C)C , state the outcome it received in this test.
class 1

For OC12N=C(c3ccccc3)SC1Cc1cc(Cl)ccc12 (configuration not stated) , which call appears in the assay record?
class 1

Could you check what this test reported for Cc1nc(-c2ccc(Cl)cc2)oc1COC(C)(C)C(=O)O ?
class 0
